Target: mushroom tyrosinase (Agaricus bisporus, UniProt C7FF04)
Sequence (C7FF04 2-392): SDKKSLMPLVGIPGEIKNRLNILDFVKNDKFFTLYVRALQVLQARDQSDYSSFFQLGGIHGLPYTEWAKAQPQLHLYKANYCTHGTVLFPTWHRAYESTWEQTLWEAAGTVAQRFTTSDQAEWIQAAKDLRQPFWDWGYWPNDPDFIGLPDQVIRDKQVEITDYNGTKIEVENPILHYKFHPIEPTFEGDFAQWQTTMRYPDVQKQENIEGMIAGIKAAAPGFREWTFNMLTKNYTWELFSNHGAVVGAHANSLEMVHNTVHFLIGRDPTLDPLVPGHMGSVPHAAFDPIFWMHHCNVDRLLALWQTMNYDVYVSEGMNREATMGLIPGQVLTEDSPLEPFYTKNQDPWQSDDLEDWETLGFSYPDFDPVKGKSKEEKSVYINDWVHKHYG
Sequence (G1K3P4 1-150 partner): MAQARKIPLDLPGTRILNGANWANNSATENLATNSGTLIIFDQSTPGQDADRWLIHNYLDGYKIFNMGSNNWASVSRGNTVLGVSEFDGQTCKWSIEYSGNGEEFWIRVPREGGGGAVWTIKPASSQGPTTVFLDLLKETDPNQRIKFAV
Assay: Determination of the inhibition type and inhibition constant (Lineweaver–Burk plots)
Format: biochemical
Details: plot of vertical intercept (1/Vmapp) versus inhibitor concentration; oxidation of L-DOPA
# KIS (inhibitor binding with enzyme–substrate complex) annotations
ENDPOINT_LABEL: KIS (inhibitor binding with enzyme–substrate complex)

| COMPOUND | RESULT |
| --- | --- |
| O=C(/C=C/c1ccc(O)c(O)c1)O[C@H](Cc1ccc(O)c(O)c1)C(=O)O [Rosmarinic acid] | 29.8 µM |
| O=c1cc(-c2ccccc2)oc2cc(O)c(O)c(O)c12 [Baicalein] | 38.4 µM |
| CC(C)=CC[C@@H](O)C1=CC(=O)c2c(O)ccc(O)c2C1=O [Shikonin] | 48.6 µM |
| O=C1c2c(O)cc(O)cc2O[C@H](c2cc(O)c(O)c(O)c2)[C@H]1O [Dihydromyricetin] | 23.6 µM |

###

Biological target: mushroom tyrosinase (Agaricus bisporus)
Test: Determination of the inhibition type and inhibition constant (Lineweaver–Burk plots)
Format: biochemical
Conditions: plots of enzyme activity versus enzyme concentration, oxidation of L-DOPA
ENDPOINT_LABEL: inhibitory mechanism (reversibility)

| MOLECULE | TGT | RESULT |
| --- | --- | --- |
| O=c1cc(-c2ccccc2)oc2cc(O)c(O)c(O)c12 [Baicalein] | mushroom tyrosinase (Agaricus bisporus) | reversible inhibitors |
| O=C1c2c(O)cc(O)cc2O[C@H](c2cc(O)c(O)c(O)c2)[C@H]1O [Dihydromyricetin] | mushroom tyrosinase (Agaricus bisporus) | reversible inhibitors |
| O=C(/C=C/c1ccc(O)c(O)c1)O[C@H](Cc1ccc(O)c(O)c1)C(=O)O [Rosmarinic acid] | mushroom tyrosinase (Agaricus bisporus) | reversible inhibitors |
